All figures here come from the supplement of paper PMC5998384.

Tested on: HeLa Kyoto
assayInfo: thermal stability score vs G1/S (z-score of summed log2 fold changes over temperatures); higher = more thermally stable than in G1/S
studyConditions: cell cycle stage: mitosis
In this section, each of the sequences is paired with its reported thermal stability score.
Format: numeric value only, no unit, no commentary.

>  <macromoleculeSequence>
MAAAAAQGGGGGEPRRTEGVGPGVPGEVEMVKGQPFDVGPRYTQLQYIGEGAYGMVSSAYDHVRKTRVAIKKISPFEHQTYCQRTLREIQILLRFRHENVIGIRDILRASTLEAMRDVYIVQDLMETDLYKLLKSQQLSNDHICYFLYQILRGLKYIHSANVLHRDLKPSNLLINTTCDLKICDFGLARIADPEHDHTGFLTEYVATRWYRAPEIMLNSKGYTKSIDIWSVGCILAEMLSNRPIFPGKHYLDQLNHILGILGSPSQEDLNCIINMKARNYLQSLPSKTKVAWAKLFPKSDSKALDLLDRMLTFNPNKRITVEEALAHPYLEQYYDPTDEPVAEEPFTFAMELDDLPKERLKELIFQETARFQPGVLEAP [MAPK3]

>  <targetOfAssay>
HeLa Kyoto

>  <thermal stability score>
-0.247

$$$$
>  <macromoleculeSequence>
MLSRVVLSAAATAAPSLKNAAFLGPGVLQATRTFHTGQPHLVPVPPLPEYGGKVRYGLIPEEFFQFLYPKTGVTGPYVLGTGLILYALSKEIYVISAETFTALSVLGVMVYGIKKYGPFVADFADKLNEQKLAQLEEAKQASIQHIQNAIDTEKSQQALVQKRHYLFDVQRNNIAMALEVTYRERLYRVYKEVKNRLDYHISVQNMMRRKEQEHMINWVEKHVVQSISTQQEKETIAKCIADLKLLAKKAQAQPVM [ATP5F1]

>  <targetOfAssay>
HeLa Kyoto

>  <thermal stability score>
-1.2

$$$$
>  <macromoleculeSequence>
MNMTQARVLVAAVVGLVAVLLYASIHKIEEGHLAVYYRGGALLTSPSGPGYHIMLPFITTFRSVQTTLQTDEVKNVPCGTSGGVMIYIDRIEVVNMLAPYAVFDIVRNYTADYDKTLIFNKIHHELNQFCSAHTLQEVYIELFDQIDENLKQALQKDLNLMAPGLTIQAVRVTKPKIPEAIRRNFELMEAEKTKLLIAAQKQKVVEKEAETERKKAVIEAEKIAQVAKIRFQQKVMEKETEKRISEIEDAAFLAREKAKADAEYYAAHKYATSNKHKLTPEYLELKKYQAIASNSKIYFGSNIPNMFVDSSCALKYSDIRTGRESSLPSKEALEPSGENVIQNKESTG [ERLIN1]

>  <targetOfAssay>
HeLa Kyoto

>  <thermal stability score>
4.38

$$$$
>  <macromoleculeSequence>
MSDFDSNPFADPDLNNPFKDPSVTQVTRNVPPGLDEYNPFSDSRTPPPGGVKMPNVPNTQPAIMKPTEEHPAYTQIAKEHALAQAELLKRQEELERKAAELDRREREMQNLSQHGRKNNWPPLPSNFPVGPCFYQDFSVDIPVEFQKTVKLMYYLWMFHAVTLFLNIFGCLAWFCVDSARAVDFGLSILWFLLFTPCSFVCWYRPLYGAFRSDSSFRFFVFFFVYICQFAVHVLQAAGFHNWGNCGWISSLTGLNQNIPVGIMMIIIAALFTASAVISLVMFKKVHGLYRTTGASFEKAQQEFATGVMSNKTVQTAAANAASTAASSAAQNAFKGNQI [SCAMP1]

>  <targetOfAssay>
HeLa Kyoto;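 note: synchronized HeLa Kyoto cells, proteins quantified by TMT10plex mass spectrometry, three biological replicates, mitosis taken 0.5 h after nocodazole release, G1/S directly after double thymidine block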

>  <thermal stability score>
-0.121

$$$$

Turning now to a further record.
## Input Provide thermal stability score value for the following sequence: MACAAARSPADQDRFICIYPAYLNNKKTIAEGRRIPISKAVENPTATEIQDVCSAVGLNVFLEKNKMYSREWNRDVQYRGRVRVQLKQEDGSLCLVQFPSRKSVMLYAAEMIPKLKTRTQKTGGADQSLQQGEGSKKGKGKKKK [SRP19]
## Output -0.116
